# ASSAY_TARGET: human SSTR5 (Homo sapiens)
# Construct: expressed in transfected cells; host or cells: CHO-K1 cells and CCL39 cells
# Sequence (P35346 whole entry): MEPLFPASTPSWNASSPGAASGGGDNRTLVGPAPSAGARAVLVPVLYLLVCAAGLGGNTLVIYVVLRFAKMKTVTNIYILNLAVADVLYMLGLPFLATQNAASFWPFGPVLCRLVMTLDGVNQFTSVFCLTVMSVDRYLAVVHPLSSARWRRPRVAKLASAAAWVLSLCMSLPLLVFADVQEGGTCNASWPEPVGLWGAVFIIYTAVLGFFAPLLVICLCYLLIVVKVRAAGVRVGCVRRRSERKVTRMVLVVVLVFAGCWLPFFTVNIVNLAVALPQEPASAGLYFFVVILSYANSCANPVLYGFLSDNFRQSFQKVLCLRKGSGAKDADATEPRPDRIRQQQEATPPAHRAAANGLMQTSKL
# MEASUREMENT_PROTOCOL: Displacement of 125I-[Leu8,D-Trp22,Tyr25]-somatostatin-28 from cloned SSTR5 (receptor autoradiography on membrane pellets)
# Assay type: binding
# CONDITION: inhibition of 125I-[Leu8,D-Trp22,Tyr24]SRIF-28 binding, cloned receptor; read-out: IC50 (nM) mSSTR5
Reported IC50 values are given for each entry in this list.

1. C[C@@H](O)[C@@H]1NC(=O)[C@H](CCCCN)NC(=O)[C@@H](N(C)C(=O)c2ccc3ccccc3c2)NC(=O)[C@H](Cc2ccccc2)NC(=O)[C@H](Cc2ccccc2)NC(=O)[C@H](N)CSSC[C@@H](C(=O)O)NC(=O)[C@H](Cc2ccccc2)NC1=O [Peptide No. 2D] :: > 1000 nM

Task item: Hello, please tell me recorded IC50 for this one: C[C@@H](O)[C@@H]1NC(=O)[C@H](CCCCN)NC(=O)[C@@H](N(C)C(=O)c2ccc3ccccc3c2)NC(=O)[C@H](Cc2ccc(Cl)cc2)NC(=O)[C@H](Cc2ccccc2)NC(=O)[C@H](N)CSSC[C@@H](C(=O)O)NC(=O)[C@H](Cc2ccccc2)NC1=O [Peptide No. 2E]
Reply: > 1000 nM

Task item: Hello, please tell me recorded IC50 for this one: C[C@@H](O)[C@@H]1NC(=O)[C@H](CCCCN)NC(=O)[C@@H](N(C)C(=O)c2ccc3ccccc3c2)NC(=O)[C@H](Cc2ccc(O)cc2)NC(=O)[C@H](Cc2ccccc2)NC(=O)[C@@H](N)CSSC[C@@H](C(=O)O)NC(=O)[C@H](Cc2ccccc2)NC1=O [Peptide No. 2]
Reply: > 10000 nM

Task item: Hello, please tell me recorded IC50 for this one: C[C@@H](O)[C@@H]1NC(=O)[C@H](CCCCN)NC(=O)[C@@H](N(C)C(=O)c2ccc3ccccc3c2)NC(=O)[C@H](Cc2ccccc2)NC(=O)[C@H](Cc2ccccc2)NC(=O)[C@@H](N)CSSC[C@@H](C(=O)O)NC(=O)[C@H](Cc2ccccc2)NC1=O [Peptide No. 2B]
Reply: > 10000 nM

Task item: Hello, please tell me recorded IC50 for this one: C[C@@H](O)[C@@H]1NC(=O)[C@H](CCCCN)NC(=O)[C@@H](N(C)C(=O)c2ccc3ccccc3c2)NC(=O)[C@H](Cc2ccc(O)cc2)NC(=O)[C@H](Cc2ccccc2)NC(=O)[C@H](N)CSSC[C@@H](C(=O)O)NC(=O)[C@H](Cc2ccccc2)NC1=O [Peptide No. 2A]
Reply: > 10000 nM

Task item: Hello, please tell me recorded IC50 for this one: C[C@@H](O)[C@@H]1NC(=O)[C@H](CCCCN)NC(=O)[C@@H](N(C)C(=O)c2ccc3ccccc3c2)NC(=O)[C@H](Cc2ccc(O)cc2)NC(=O)[C@H](Cc2ccccc2)NC(=O)[C@H](NC(N)=O)CSSC[C@@H](C(=O)O)NC(=O)[C@H](Cc2ccccc2)NC1=O [Peptide No. 2F]
Reply: > 10000 nM

Task item: Hello, please tell me recorded IC50 for this one: C[C@@H](O)[C@@H]1NC(=O)[C@H](CCCCN)NC(=O)[C@@H](Cc2ccc3ccccc3c2)NC(=O)[C@H](N(C)C(=O)c2ccccc2)NC(=O)[C@H](Cc2ccccc2)NC(=O)[C@@H](N)CSSC[C@@H](C(=O)O)NC(=O)[C@H](Cc2ccccc2)NC1=O [Peptide No. 3]
Reply: > 1000 nM

Task item: Hello, please tell me recorded IC50 for this one: C[C@@H](O)[C@@H]1NC(=O)[C@H](CCCCN)NC(=O)[C@@H](N(C)C(=O)c2ccc3ccccc3c2)NC(=O)[C@H](Cc2ccc(Cl)cc2)NC(=O)[C@H](Cc2ccccc2)NC(=O)[C@@H](N)CSSC[C@@H](C(=O)O)NC(=O)[C@H](Cc2ccccc2)NC1=O [Peptide No. 2C]
Reply: > 10000 nM

###

# ASSAY_TARGET: human SSTR1 (Homo sapiens, UniProt P30872)
# Construct: expressed in transfected cells; host or cells: CHO-K1 cells and CCL39 cells
# Sequence (P30872 whole entry): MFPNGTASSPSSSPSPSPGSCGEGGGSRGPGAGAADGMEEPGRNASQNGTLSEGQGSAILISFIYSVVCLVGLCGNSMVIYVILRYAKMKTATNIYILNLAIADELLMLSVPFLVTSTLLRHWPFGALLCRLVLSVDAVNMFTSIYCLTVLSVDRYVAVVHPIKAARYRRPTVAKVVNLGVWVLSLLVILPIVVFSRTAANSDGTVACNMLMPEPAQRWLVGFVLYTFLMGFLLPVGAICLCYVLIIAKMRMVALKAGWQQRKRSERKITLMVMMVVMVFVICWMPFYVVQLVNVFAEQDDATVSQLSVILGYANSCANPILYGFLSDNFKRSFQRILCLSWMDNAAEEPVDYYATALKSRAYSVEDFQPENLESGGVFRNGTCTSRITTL
# MEASUREMENT_PROTOCOL: Displacement of 125I-[Leu8,D-Trp22,Tyr25]-somatostatin-28 from cloned SSTR1 (receptor autoradiography on membrane pellets)
# Format: binding
# CONDITION: inhibition of 125I-[Leu8,D-Trp22,Tyr24]SRIF-28 binding, cloned receptor; read-out: IC50 (nM) mSSTR1
MEASURED_QUANTITY: IC50

1. C[C@@H](O)[C@@H]1NC(=O)[C@H](CCCCN)NC(=O)[C@@H](N(C)C(=O)c2ccc3ccccc3c2)NC(=O)[C@H](Cc2ccc(O)cc2)NC(=O)[C@H](Cc2ccccc2)NC(=O)[C@H](NC(N)=O)CSSC[C@@H](C(=O)O)NC(=O)[C@H](Cc2ccccc2)NC1=O [Peptide No. 2F] :: > 10000 nM

Task item: Recall the reported IC50 of C[C@@H](O)[C@@H]1NC(=O)[C@H](CCCCN)NC(=O)[C@@H](Cc2ccc3ccccc3c2)NC(=O)[C@H](N(C)C(=O)c2ccccc2)NC(=O)[C@H](Cc2ccccc2)NC(=O)[C@@H](N)CSSC[C@@H](C(=O)O)NC(=O)[C@H](Cc2ccccc2)NC1=O [Peptide No. 3] on human SSTR1 (Homo sapiens, UniProt P30872) and write it down.
Reply: > 10000 nM

###

# ASSAY_TARGET: human SSTR1 (Homo sapiens)
# Construct: expressed in transfected cells; host or cells: CHO-K1 cells and CCL39 cells
# MEASUREMENT_PROTOCOL: Displacement of 125I-[Leu8,D-Trp22,Tyr25]-somatostatin-28 from cloned SSTR1 (receptor autoradiography on membrane pellets)
# Format: binding
# CONDITION: inhibition of 125I-[Leu8,D-Trp22,Tyr24]SRIF-28 binding, cloned receptor; read-out: IC50 (nM) mSSTR1
MEASURED_QUANTITY: IC50

As a guide, the following entries are already answered.
1) C[C@@H](O)[C@@H]1NC(=O)[C@H](CCCCN)NC(=O)[C@@H](N(C)C(=O)c2ccc3ccccc3c2)NC(=O)[C@H](Cc2ccc(O)cc2)NC(=O)[C@H](Cc2ccccc2)NC(=O)[C@@H](N)CSSC[C@@H](C(=O)O)NC(=O)[C@H](Cc2ccccc2)NC1=O [Peptide No. 2] :: > 10000 nM
2) C[C@@H](O)[C@@H]1NC(=O)[C@H](CCCCN)NC(=O)[C@@H](N(C)C(=O)c2ccc3ccccc3c2)NC(=O)[C@H](Cc2ccc(Cl)cc2)NC(=O)[C@H](Cc2ccccc2)NC(=O)[C@H](N)CSSC[C@@H](C(=O)O)NC(=O)[C@H](Cc2ccccc2)NC1=O [Peptide No. 2E] :: > 1000 nM
3) C[C@@H](O)[C@@H]1NC(=O)[C@H](CCCCN)NC(=O)[C@@H](N(C)C(=O)c2ccc3ccccc3c2)NC(=O)[C@H](Cc2ccc(Cl)cc2)NC(=O)[C@H](Cc2ccccc2)NC(=O)[C@@H](N)CSSC[C@@H](C(=O)O)NC(=O)[C@H](Cc2ccccc2)NC1=O [Peptide No. 2C] :: > 1000 nM

Next, consider the following molecule.
Task item: Recall the reported IC50 of C[C@@H](O)[C@@H]1NC(=O)[C@H](CCCCN)NC(=O)[C@@H](N(C)C(=O)c2ccc3ccccc3c2)NC(=O)[C@H](Cc2ccccc2)NC(=O)[C@H](Cc2ccccc2)NC(=O)[C@@H](N)CSSC[C@@H](C(=O)O)NC(=O)[C@H](Cc2ccccc2)NC1=O [Peptide No. 2B] on human SSTR1 (Homo sapiens) and write it down.
Reply: > 10000 nM

###

# ASSAY_TARGET: human SSTR1 (Homo sapiens, UniProt P30872)
# Construct: expressed in transfected cells; host or cells: CHO-K1 cells and CCL39 cells
# MEASUREMENT_PROTOCOL: Displacement of 125I-[Leu8,D-Trp22,Tyr25]-somatostatin-28 from cloned SSTR1 (receptor autoradiography on membrane pellets)
# Type: binding
# CONDITION: inhibition of 125I-[Leu8,D-Trp22,Tyr24]SRIF-28 binding, cloned receptor; read-out: IC50 (nM) mSSTR1
Reported IC50 values are given for each entry in this list.

1. C[C@@H](O)[C@@H]1NC(=O)[C@H](CCCCN)NC(=O)[C@@H](N(C)C(=O)c2ccc3ccccc3c2)NC(=O)[C@H](Cc2ccccc2)NC(=O)[C@H](Cc2ccccc2)NC(=O)[C@H](N)CSSC[C@@H](C(=O)O)NC(=O)[C@H](Cc2ccccc2)NC1=O [Peptide No. 2D] :: > 10000 nM

Next, consider the following molecule.
Task item: Recall the reported IC50 of C[C@@H](O)[C@@H]1NC(=O)[C@H](CCCCN)NC(=O)[C@@H](N(C)C(=O)c2ccc3ccccc3c2)NC(=O)[C@H](Cc2ccc(O)cc2)NC(=O)[C@H](Cc2ccccc2)NC(=O)[C@H](N)CSSC[C@@H](C(=O)O)NC(=O)[C@H](Cc2ccccc2)NC1=O [Peptide No. 2A] on human SSTR1 (Homo sapiens, UniProt P30872) and write it down.
Reply: > 10000 nM
